experiment: Intrinsic clearance in human liver microsomes preincubated for 5 mins followed by NADPH addition measured after 45 mins by LC/MS analysis; type: ADME, Microsome; settings: time 50 min, read-out: CLH
Metric: CLint scaled (mL/min/kg)
Field format: number, assumed mL/min/kg, no unit text.

Quick check: CLint scaled of COc1cc(/C=C/C(=O)N2CCN(C(=O)C(C)(C)Oc3ccc(C(=O)c4ccc(Cl)cc4)cc3)CC2)ccc1O ?
21

----------
assay: Intrinsic clearance in mouse liver microsomes preincubated for 5 mins followed by NADPH addition measured after 45 mins by LC/MS analysis; type: ADME, Microsome; conditions: time 50 min, read-out: CLH
// reported CLint scaled per item
Give the number first and the unit second.

O=C(c1ccc(F)cc1)C1CCN(CCn2c(=O)[nH]c3ccccc3c2=O)CC1 :: 245 mL/min/kg

Turning to the following molecule.
Endpoint output: CLint scaled of COc1cc(/C=C/C(=O)N2CCN(C(=O)C(C)(C)Oc3ccc(C(=O)c4ccc(Cl)cc4)cc3)CC2)ccc1O . Value?
156 mL/min/kg

----------
assay: Stability in mouse liver microsomes assessed as parent compound remaining preincubated for 5 mins followed by NADPH addition measured after 45 mins by LC/MS analysis; assay type: ADME, Microsome; conditions: time 50 min, read-out: Stability
Metric: remaining at 0.75 h

COc1cc(/C=C/C(=O)N2CCN(C(=O)C(C)(C)Oc3ccc(C(=O)c4ccc(Cl)cc4)cc3)CC2)ccc1O :: 38%

Let's switch to this compound now.
Would you kindly share the measured remaining at 0.75 h for O=C(c1ccc(F)cc1)C1CCN(CCn2c(=O)[nH]c3ccccc3c2=O)CC1 [KETANSERIN] ?
29%
